- System: NRG-mice bearing LNCaP tumors
- assayMethodText: Biodistribution (and PET/SPECT imaging) in NRG-mice bearing LNCaP tumors
- Assay type: in vivo
- particulars: 72 h p.i., Avg
*1 amine or outer side, *2 acyl side, *3 side chain or, on linkers, in order; H or OH if unused. Where a SMILES comes first, the peptide text is derived from it. [ ]: non-standard residue; d: D form. The star is where a group is joined. ξ: configuration not given here. ξLys(Nα-CO-ξAad) = O=C(O)CCCC(NC(=O)NC(CCCCN*)C(=O)O)C(=O)O; Butanoyl(4-(4-NO2Ph)) = O=C(CCCc1ccc([N+](=O)[O-])cc1)*; DOTA = O=C(O)CN1CCN(CC(=O)O)CCN(CC(=O)*)CCN(CC(=O)O)CC1; ξAla(9-anthryl) = NC(Cc1c2ccccc2cc2ccccc12)C(=O)O; X1 = O=C(C1CCC(CN[*:1])CC1)[*:2]; ξK = NCCCCC(N)C(=O)O
propertyMeasured: Biodistribution: Pancreas (% ID/g)

compound	numericResult
O=C([O-])CN1CCN(CC(=O)[O-])CCN(CC(=O)NCCCCC(NC(=O)CNC(=O)CCCc2ccc([N+](=O)[O-])cc2)C(=O)NCC(=O)NCC2CCC(C(=O)NC(Cc3c4ccccc4cc4ccccc34)C(=O)NCCCCC(NC(=O)NC(CCCC(=O)O)C(=O)O)C(=O)O)CC2)CCN(CC(=O)[O-])CC1.[177Lu+3] (stereo not shown) [^177Lu-CCZ02017] ({Butanoyl(4-(4-NO2Ph))}-G[ξK](DOTA)G[X1][ξAla(9-anthryl)]-{ξLys(Nα-CO-ξAad)})	0.04
